# Tested on: T47D (ductal breast epithelial tumour cell line)
# assay name: cells
# Assay type: cell-based
# stated conditions: Homo sapiens; T47D, MTT assay
readout kind: pIC50
Formally, pIC50 is defined as -log10 of the concentration c, with c in mol/L.

// pIC50 (T47D (ductal breast epithelial tumour cell line)) for CC1(C)S[C@@H]2[C@H](NC(=O)[C@H](N)c3ccccc3)C(=O)N2[C@H]1C(=O)O [[P6,6,6,14][Amp]] = 6.58

---

Recorded IC50 by entry
# Tested on: HepG2 (hepatocellular liver carcinoma cell)
# assay name: MTT cellular viability/proliferation, cancer cell lines
# Format: cell-based, human
# stated conditions: HepG2, MTT assay
Hi! Could you send only the number? It should be in nM, unit omitted.

Briefly, IC50 measured for CC1(C)S[C@@H]2[C@H](NC(=O)[C@H](N)c3ccccc3)C(=O)N2[C@H]1C(=O)[O-].C[n+]1ccn(CCO)c1 [[C2OHMIM][Amp]] : 319

Next:
Briefly, IC50 measured for CC1(C)S[C@@H]2[C@H](NC(=O)[C@H](N)c3ccccc3)C(=O)N2[C@H]1C(=O)[O-].C[N+](C)(C)CCO [[Cholin][Amp]] : 1620

---

# System: E. fecalis
# assay name: Minimum inhibitory concentration, ampicillin sensitive strains
# Assay type: cell-based, Enterococcus fecalis
# stated conditions: E. fecalis, Gram-positive, ampicillin sensitive
# Procedure: Each one of the 24 combinations of the ionic liquids were tested with following 9 bacteria: • Escherichia coli ATCC25922 • Staphylococcus aureus ATCC25923 • Klebsiella pneumonia • Staphylococcus epidermidis • Enterococcus fecalis • E. coli Tem CTXM9 • E. coli CTXM2 • E. coli AmpCMox2 • Saccharomyces cerevisiae PYCC 4072 These bacteria were tested in Vitek2 systems from bioMérieux. Bacteria were grown on Trypticase soy agar for 24 hours at 37° C. prior to each test. […]
Recorded Minimum inhibitory concentrations by entry
Hi! Could you send only the number? It should be in mM, unit omitted.

These recorded examples may help you get a feel for the data.
Briefly, Minimum inhibitory concentrations measured for CCCCCCCCCCCCCCCC[n+]1ccccc1.[Cl-] [[C16Pyr][Cl]] : 0.5

Briefly, Minimum inhibitory concentrations measured for CC1(C)S[C@@H]2[C@H](NC(=O)[C@H](N)c3ccccc3)C(=O)N2[C@H]1C(=O)[O-].[Na+] [[Na][Amp]] [sodium ampicillin] : 0.05

Briefly, Minimum inhibitory concentrations measured for C[n+]1ccn(CCO)c1.[Cl-] [[C2OHMIM][Cl]] : 5

Briefly, Minimum inhibitory concentrations measured for CC1(C)S[C@@H]2[C@H](NC(=O)[C@H](N)c3ccccc3)C(=O)N2[C@H]1C(=O)[O-].CCCCCCCCCCCCCCCC[n+]1ccccc1 [[C16Pyr][Amp]] : 0.005

Next:
Briefly, Minimum inhibitory concentrations measured for CC1(C)S[C@@H]2[C@H](NC(=O)[C@H](N)c3ccccc3)C(=O)N2[C@H]1C(=O)[O-].C[n+]1ccn(CCO)c1 [[C2OHMIM][Amp]] : 5

---

# Tested on: PC3 (prostate cancer cell line)
# assay name: MTT cellular viability/proliferation, cancer cell lines
# Assay type: cell-based, human
# stated conditions: Homo sapiens; PC3, MTT assay
# Method: At about 70-80% confluence, cells were enzymatically detached with 0.05% trypsin and 0.5 mM EDTA and seeded at 10^4 cells cm^−2. […] Cellular viability/proliferation was assessed by the MTT assay at days 1, 3 and 5 of the culture. […] Shortly, cultured cells were incubated at 37° C. with 0.5 mg ml −1 of MTT for 4 hours. The culture medium was then removed; the stained product dissolved with dimethylsulfoxide, and absorbance determined at 550 nm in an ELISA plate rewader. […]
readout kind: IC50 (nM)
Hi! Could you send only the number? It should be in nM, unit omitted.

Briefly, IC50 measured for CC1(C)S[C@@H]2[C@H](NC(=O)[C@H](N)c3ccccc3)C(=O)N2[C@H]1C(=O)O [[P6,6,6,14][Amp]] : 354

All values here come from patent US20150174145A1.
